Target: Mouse histone methyltransferase G9a (969-1263) (Mus musculus, UniProt Q9Z148)
Construct: The 6His-sumo mG9a (969-1263) protein was purified using the following procedure; 6His-sumo (cleaved yes); made in house; host or cells: Escherichia coli BL21 (DE3)
Sequence (Q9Z148 969-1263): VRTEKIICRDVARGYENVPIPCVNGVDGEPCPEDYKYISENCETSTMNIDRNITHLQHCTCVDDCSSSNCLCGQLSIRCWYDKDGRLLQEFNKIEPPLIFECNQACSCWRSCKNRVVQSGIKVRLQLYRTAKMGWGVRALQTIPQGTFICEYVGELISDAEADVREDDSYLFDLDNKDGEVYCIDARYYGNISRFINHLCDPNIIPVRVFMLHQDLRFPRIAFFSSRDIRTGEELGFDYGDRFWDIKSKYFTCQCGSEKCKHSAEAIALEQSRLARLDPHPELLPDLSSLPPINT
Test: MALDI-TOF methylation study of G9a inhibition
Type: biochemical
Settings: inhibitors at 5 μM concentration for 30 min
measured.property: inhibition at 5 µM (%)

| molecule | inhibition at 5 µM (%) |
| --- | --- |
| COc1cc2nc(N3CCCN(C)CC3)nc(NC3CCN(Cc4ccccc4)CC3)c2cc1OC.Cl.Cl.Cl [BIX-01294, trihydrochloride, reference compound] | 77.7 |

P. COc1cc2nc(NCCNC(=O)CCCC(=O)NO)nc(NC3CCN(C)CC3)c2cc1OC
Q. COc1ccc2c(NC3CCN(C)CC3)nc(NCCNC(=O)CCCCC(=O)NO)nc2c1 [Compound 15a]
R. COc1ccc2c(NC3CCN(Cc4ccccc4)CC3)nc(NCCNC(=O)CCCCC(=O)NO)nc2c1
[ask] Hey, can you sort those molecules up there by inhibition at 5 µM, smallest first? Put the labels in the order asked and list them.
[reply] P, R, Q
(P: 19.6%, R: 47.9%, Q: 69.1%)
